Tested on: Saccharomyces cerevisiae BY4741 SeMeCo community
experiment_summary: z-score of subpopulation abundance vs DMSO median, subpopulation auxotrophic for H; higher = larger share of this subpopulation than in DMSO controls
settings: 10 µM; 24 h; SM minimal medium; subpopulation (auxotrophy): H
Where a name gives a salt, the structure may show the parent alone.
Give condition met when the value for z-score of subpopulation abundance is at least 0.1. Give condition not met when it is less.

> print(dat)
                                   molecule        label.value
1   Cc1ncc([N+](=O)[O-])n1C [Dimetridazole]  condition not met
2  Cc1nnc(SCC2=C(C(=O)O)N3C(=O)[C@@H](NC(=O)Cn4cnnn4)[C@H]3SC2)s1 [Cefazolin Sodium]      condition met
3  N#Cc1ccc2[nH]cc(CCCCN3CCN(c4ccc5oc(C(N)=O)cc5c4)CC3)c2c1 [Vilazodone HCl]      condition met

Textbook exercise: given the entry COc1ccc2c3c1O[C@H]1C[C@@H](O)C=C[C@@]31CCN(C)C2 [Galanthamine] , state whether its z-score of subpopulation abundance is greater than or equal to 0.1.
condition met

Next entry: CO/N=C(\C(=O)N[C@@H]1C(=O)N2C(C(=O)OC(C)OC(C)=O)=C(COC(N)=O)CS[C@H]12)c1ccco1 (stereo partly drawn) [Cefuroxime axetil]
condition not met

Next entry: CO/N=C(\C(=O)N[C@@H]1C(=O)N2C(C(=O)O)=C(CSc3nc(C)c(CC(=O)O)s3)CS[C@H]12)c1csc(N)n1 [Cefodizime Sodium]
condition not met
